# TEST TARGET: Golgi-associated PDZ and coiled-coil motif-containing protein (Homo sapiens)
# PROCEDURE TEXT: untagged CAL PDZ binding inhibitors, primary screen, biochemical, fluorescence polarization, HTS (AID 602252)
# RUN CONDITIONS: purified CAL PDZ, TMR-peptide fluorescence polarization, 1 h; at 24.9 µM; stronger effect = higher value
About 2,700 (0.9%) of roughly 300,000 compounds were called active. This is one part of a sample in which actives are shown more often than they occur.
Tag: Criterion met if measured inhibition is not below 40%, Criterion not met if it is.

1. O=C(COc1ccccc1F)Nc1nc(-c2ccccn2)cs1: Criterion not met
2. S=C(c1ccc(-c2ccccc2)o1)N1CCCCC1: Criterion met
3. CCOC(=O)C(C)n1cnc2sc(C)c(C)c2c1=O (centres undefined): Criterion not met
4. O=S(=O)(NCCc1ccccn1)c1cc(Cl)cc(Cl)c1O: Criterion not met
5. OC(CNCCc1ccc(Cl)cc1Cl)COc1ccccc1 (centres undefined): Criterion met
6. CN(Cc1ccccc1)C(=O)COc1ccccc1: Criterion not met
7. O=C(NCc1ccccc1)c1cccc(NC(=O)C2CCCCC2)c1: Criterion not met
8. O=C(NC1CCCC1)C1CC(=O)N(c2ccc(F)cc2)C1 (centres undefined): Criterion met
9. COc1ccc(S(=O)(=O)N2CCOCC2)cc1NC(=O)c1ccc(OCC(C)C)c(OC)c1: Criterion not met
10. CCO[C@H]1OC(C(=O)N2CCOCC2)=C[C@@H](c2ccc3c(c2)OCO3)[C@@H]1CCCO: Criterion not met
11. CC1(C)C(=O)CCC2(C)C1=CCC1C2C(=O)CC2(C)C1CCC2(O)C(=O)CO (centres undefined): Criterion not met
12. Cc1cccc(OC(=O)c2sc3ncn(C)c(=O)c3c2C)c1: Criterion not met
